- System: MS2 coat protein
- protocol text: apparent KD of MS2 coat protein; designed switch direction (-1 OFF switch, 1 ON switch): -1; higher = weaker reporter binding
- run conditions: Eterna round: R95; input ligand: FMN 200 uM
Please mark true if the recorded apparent KD of MS2 coat protein is equal to or greater than 40 nM, and false if it falls below.

Please check the record ACAAGCUCUUUGCAUCUUAGUUUUGUUGCUUCGUAUGUAACAUGAGGAUCACCCAUGUAAGACUGAUGUCGUCUUUU [JR_SV3TOV2_Sub087] (puzzle: Sensor v3, turn-off variant 2) and state if its apparent KD of MS2 coat protein is at or above 40 nM.
true

Decide: is the reported value of apparent KD of MS2 coat protein for GAUUACUGCAAGCUUUGGAACAUGAGGAUCACCCAUGUUCGUCUUAUUGAUCUAGGUACGCUGACGUACCUAGAUCU [JL-sv1-2.30 Brourd mod] (puzzle: Sensor v3, turn-off variant 1) equal to or greater than 40 nM?
false

Identify whether the reported apparent KD of MS2 coat protein of the following sequence is 40 nM or greater: AAGAAACAUGAGGAUCACCCAUGUGAGGAUAUGAUCAAGAAAAGAAAAGAAAGAAGAGUCAGAAGGCACAAAGG [salish99-ex1_r3_065] (puzzle: Exclusion 1)
true

Assess whether reported apparent KD of MS2 coat protein for UUUAAUUUUUUUUUUUUACAAGCUUUUUGCUCGUCUUAUACAUGAGGAUCACCCAUGUGGAUGGGAAAUGAAUUAUC [JMF 97] (puzzle: Sensor v3, turn-off variant 2) sits at 40 nM or higher.
false

Reported apparent KD of MS2 coat protein at or above 40 nM? UAAAAGGUAGGAUAUACGAAAAAAAAGGGUAGAAAAAAAACACAUGAGGAUCACCCAUGUAGAAGGACCAAAAA [salish99_ex2_r3_049] (puzzle: Exclusion 2)
true

Threshold query (apparent KD of MS2 coat protein >= 40 nM) on AAUACCGGUCUGCCUAAAGACAUGAGGAUCACCCAUGUCUGAUUCUCAACAGGCCUUUUGCUUCUCUUAACUACACA [Vetilage] (puzzle: Sensor v3, turn-off variant 1)
false

Check this sequence for apparent KD of MS2 coat protein at or above 40 nM: CUGAGCAGACGGAGAUCCAACAUGAGGAUCACCCAUGUCUCAAAAGCUUUUUGCUUGUCUUAUUCUCCUCUGUUCAC [Enradibe] (puzzle: Sensor v3, turn-off variant 1)
false

Reported apparent KD of MS2 coat protein at or above 40 nM? AAUAAACAUGAGGAUCACCCAUGUGAGGAUAUGCAAAUAAAUAAAUAAAUAAAUAAUAGUAGAAGGCGCAAUAA [Excls1-I] (puzzle: Exclusion 1)
false

For this sequence, is measured apparent KD of MS2 coat protein 40 nM or higher? CCUAGACAUGAGGAUCACCCAUGUGAGGAUAUGAUGCGAAUAAAGAAAGAAGAAAGCAUCAGAAGGCACAUAUG [Fiskers Ex 1 - 2] (puzzle: Exclusion 1)
true

Can GCAUUGAGUGUGAGGAUAUGCUGGUCGUAAGAUCAGCAGAAGGCACAUGAGGAUCACCCAUGUGAAAACAAUGC [Mat - Exclusion 4 - JL Mod - D67] (puzzle: Brourd's mod of Exclusion 4) be said to have apparent KD of MS2 coat protein at or above 40 nM?
true

Identify whether the reported apparent KD of MS2 coat protein of the following sequence is 40 nM or greater: AAAAGAGUAGGAUAUCUGACGCGAAACAUGAGGAUCACCCAUGUAGGGCGGUCCUGCUUAAGAGAAGGGCUCUAAU [Arorxebile] (puzzle: Exclusion 5)
true

Could you tell me if the measured apparent KD of MS2 coat protein of AAAACUAACACGAAAGUGUUAGAAUAAUAAGCUUGUGGUACAUGAGGAUCACCCAUGUCCUCAUAAGCUCGUCUUAU [Mat - Sensor v3 - Turn-off var 2 - D45] (puzzle: Sensor v3, turn-off variant 2) reaches 40 nM or more?
false

Decide: apparent KD of MS2 coat protein of AAUACCCGAGGAUAUCUAAUUCGGCACAUGAGGAUCACCCAUGUGAUCUGACCUAGCCGAGGAGAAGGCGGGUCAG [Errizabe] (puzzle: Exclusion 5) >= 40 nM?
false
